Data credit: paper PMC8345035

# EXPERIMENT_SUMMARY: In vivo biodistribution of [^203Pb]VMT01 in B16-F10 melanoma xenograft model
# Parameters: species or system athymic nude mice
# RUN_CONDITIONS: both sexes, athymic nude, mouse, kidney, intravenous, 74 KBq, total radioactivity, 0.5 h post-injection, tail vein, read-out: Biodistribution, Kidneys, Average
Where a SMILES comes first, the peptide text is derived from it. Bridges are numbered along the chain shown (N, C = ends). Triazole bridges read from a SMILES are 1,4-linked. Side-chain parts run from the residue outwards. [ ]: non-standard residue; d: D form. The star is where a group is joined. X1 = NC(=O)CN1CCN(CC(=O)O)CCN(CC(=O)*)CCN(CC(=O)O)CC1; Lys(N3) = [N-]=[N+]=NCCCC[C@H](N)C(=O)O; Nle = CCCC[C@H](N)C(=O)O; Pra = C#CC[C@H](N)C(=O)O; AEEA = NCCOCCOCC(=O)O
QUANTITY: tissue uptake at 0.5 h (%ID/g)
Give bare numbers, in %ID/g.

Lookup: tissue uptake at 0.5 h lookup needed for CCCC[C@H](NC(C)=O)C(=O)N[C@H]1Cc2cn(nn2)CCCC[C@@H](C(=O)N[C@@H](CCCCNC(=O)COCCOCCNC(=O)CN2CCN(CC(=O)O)CCN(CC(N)=O)CCN(CC(=O)O)CC2)C(N)=O)NC(=O)[C@H](Cc2c[nH]c3ccccc23)NC(=O)[C@H](CCCNC(=N)N)NC(=O)[C@@H](Cc2ccccc2)NC(=O)[C@H](Cc2c[nH]cn2)NC1=O [[^203Pb]VMT01, metal not drawn] (Ac-[Nle][Pra]H[dF]RW[Lys(N3)]K([AEEA-X1])-NH2; triazole 2-7) , thanks.
Found: 12.8

====

# EXPERIMENT_SUMMARY: In vivo biodistribution of [^203Pb]VMT01 in B16-F10 melanoma xenograft model
# Set-up: species or system athymic nude mice
# RUN_CONDITIONS: both sexes, athymic nude, mouse, skin, intravenous, 74 KBq, total radioactivity, 0.5 h post-injection, tail vein, read-out: Biodistribution, Skin, Average
Where a SMILES comes first, the peptide text is derived from it. Bridges are numbered along the chain shown (N, C = ends). Triazole bridges read from a SMILES are 1,4-linked. Side-chain parts run from the residue outwards. [ ]: non-standard residue; d: D form. The star is where a group is joined. X1 = NC(=O)CN1CCN(CC(=O)O)CCN(CC(=O)*)CCN(CC(=O)O)CC1; Lys(N3) = [N-]=[N+]=NCCCC[C@H](N)C(=O)O; Nle = CCCC[C@H](N)C(=O)O; Pra = C#CC[C@H](N)C(=O)O; AEEA = NCCOCCOCC(=O)O
QUANTITY: tissue uptake at 0.5 h (%ID/g)
Numbers only, in %ID/g.

Lookup: Request the reported tissue uptake at 0.5 h associated with CCCC[C@H](NC(C)=O)C(=O)N[C@H]1Cc2cn(nn2)CCCC[C@@H](C(=O)N[C@@H](CCCCNC(=O)COCCOCCNC(=O)CN2CCN(CC(=O)O)CCN(CC(N)=O)CCN(CC(=O)O)CC2)C(N)=O)NC(=O)[C@H](Cc2c[nH]c3ccccc23)NC(=O)[C@H](CCCNC(=N)N)NC(=O)[C@@H](Cc2ccccc2)NC(=O)[C@H](Cc2c[nH]cn2)NC1=O [[^203Pb]VMT01, metal not drawn] (Ac-[Nle][Pra]H[dF]RW[Lys(N3)]K([AEEA-X1])-NH2; triazole 2-7)
Found: 2.23

====

# EXPERIMENT_SUMMARY: In vivo biodistribution of [^203Pb]VMT01 in B16-F10 melanoma xenograft model
# Parameters: species or system athymic nude mice
# RUN_CONDITIONS: both sexes, athymic nude, mouse, kidney, intravenous, 74 KBq, total radioactivity, 3 h post-injection, tail vein, read-out: Biodistribution, Kidneys, Average
Where a SMILES comes first, the peptide text is derived from it. Bridges are numbered along the chain shown (N, C = ends). Triazole bridges read from a SMILES are 1,4-linked. Side-chain parts run from the residue outwards. [ ]: non-standard residue; d: D form. The star is where a group is joined. X1 = NC(=O)CN1CCN(CC(=O)O)CCN(CC(=O)*)CCN(CC(=O)O)CC1; Lys(N3) = [N-]=[N+]=NCCCC[C@H](N)C(=O)O; Nle = CCCC[C@H](N)C(=O)O; Pra = C#CC[C@H](N)C(=O)O; AEEA = NCCOCCOCC(=O)O
QUANTITY: tissue uptake at 3 h (%ID/g)
Numbers only, in %ID/g.

Lookup: Name the recorded tissue uptake at 3 h for CCCC[C@H](NC(C)=O)C(=O)N[C@H]1Cc2cn(nn2)CCCC[C@@H](C(=O)N[C@@H](CCCCNC(=O)COCCOCCNC(=O)CN2CCN(CC(=O)O)CCN(CC(N)=O)CCN(CC(=O)O)CC2)C(N)=O)NC(=O)[C@H](Cc2c[nH]c3ccccc23)NC(=O)[C@H](CCCNC(=N)N)NC(=O)[C@@H](Cc2ccccc2)NC(=O)[C@H](Cc2c[nH]cn2)NC1=O [[^203Pb]VMT01, metal not drawn] (Ac-[Nle][Pra]H[dF]RW[Lys(N3)]K([AEEA-X1])-NH2; triazole 2-7) .
Found: 6

====

# EXPERIMENT_SUMMARY: In vivo biodistribution of [^203Pb]VMT01 in B16-F10 melanoma xenograft model
# Design: species or system athymic nude mice
# RUN_CONDITIONS: both sexes, athymic nude, mouse, liver, intravenous, 74 KBq, total radioactivity, 3 h post-injection, tail vein, read-out: Biodistribution, Liver, Average
Where a SMILES comes first, the peptide text is derived from it. Bridges are numbered along the chain shown (N, C = ends). Triazole bridges read from a SMILES are 1,4-linked. Side-chain parts run from the residue outwards. [ ]: non-standard residue; d: D form. The star is where a group is joined. X1 = NC(=O)CN1CCN(CC(=O)O)CCN(CC(=O)*)CCN(CC(=O)O)CC1; Lys(N3) = [N-]=[N+]=NCCCC[C@H](N)C(=O)O; Nle = CCCC[C@H](N)C(=O)O; Pra = C#CC[C@H](N)C(=O)O; AEEA = NCCOCCOCC(=O)O
QUANTITY: tissue uptake at 3 h (%ID/g)
Give bare numbers, in %ID/g.

Lookup: Which tissue uptake at 3 h is reported for this compound? CCCC[C@H](NC(C)=O)C(=O)N[C@H]1Cc2cn(nn2)CCCC[C@@H](C(=O)N[C@@H](CCCCNC(=O)COCCOCCNC(=O)CN2CCN(CC(=O)O)CCN(CC(N)=O)CCN(CC(=O)O)CC2)C(N)=O)NC(=O)[C@H](Cc2c[nH]c3ccccc23)NC(=O)[C@H](CCCNC(=N)N)NC(=O)[C@@H](Cc2ccccc2)NC(=O)[C@H](Cc2c[nH]cn2)NC1=O [[^203Pb]VMT01, metal not drawn] (Ac-[Nle][Pra]H[dF]RW[Lys(N3)]K([AEEA-X1])-NH2; triazole 2-7)
Found: 0.31

====

# EXPERIMENT_SUMMARY: In vivo biodistribution of [^203Pb]VMT01 in B16-F10 melanoma xenograft model
# Design: species or system athymic nude mice
# RUN_CONDITIONS: both sexes, athymic nude, mouse, heart, intravenous, 74 KBq, total radioactivity, 24 h post-injection, tail vein, read-out: Biodistribution, Heart, Average
Where a SMILES comes first, the peptide text is derived from it. Bridges are numbered along the chain shown (N, C = ends). Triazole bridges read from a SMILES are 1,4-linked. Side-chain parts run from the residue outwards. [ ]: non-standard residue; d: D form. The star is where a group is joined. X1 = NC(=O)CN1CCN(CC(=O)O)CCN(CC(=O)*)CCN(CC(=O)O)CC1; Lys(N3) = [N-]=[N+]=NCCCC[C@H](N)C(=O)O; Nle = CCCC[C@H](N)C(=O)O; Pra = C#CC[C@H](N)C(=O)O; AEEA = NCCOCCOCC(=O)O
QUANTITY: tissue uptake at 24 h (%ID/g)
Numbers only, in %ID/g.

Lookup: tissue uptake at 24 h lookup needed for CCCC[C@H](NC(C)=O)C(=O)N[C@H]1Cc2cn(nn2)CCCC[C@@H](C(=O)N[C@@H](CCCCNC(=O)COCCOCCNC(=O)CN2CCN(CC(=O)O)CCN(CC(N)=O)CCN(CC(=O)O)CC2)C(N)=O)NC(=O)[C@H](Cc2c[nH]c3ccccc23)NC(=O)[C@H](CCCNC(=N)N)NC(=O)[C@@H](Cc2ccccc2)NC(=O)[C@H](Cc2c[nH]cn2)NC1=O [[^203Pb]VMT01, metal not drawn] (Ac-[Nle][Pra]H[dF]RW[Lys(N3)]K([AEEA-X1])-NH2; triazole 2-7) , thanks.
Found: 0.02

====

# EXPERIMENT_SUMMARY: In vivo biodistribution of [^203Pb]VMT01 in B16-F10 melanoma xenograft model
# Set-up: species or system athymic nude mice
# RUN_CONDITIONS: both sexes, athymic nude, mouse, heart, intravenous, 74 KBq, total radioactivity, 6 h post-injection, tail vein, read-out: Biodistribution, Heart, Average
Where a SMILES comes first, the peptide text is derived from it. Bridges are numbered along the chain shown (N, C = ends). Triazole bridges read from a SMILES are 1,4-linked. Side-chain parts run from the residue outwards. [ ]: non-standard residue; d: D form. The star is where a group is joined. X1 = NC(=O)CN1CCN(CC(=O)O)CCN(CC(=O)*)CCN(CC(=O)O)CC1; Lys(N3) = [N-]=[N+]=NCCCC[C@H](N)C(=O)O; Nle = CCCC[C@H](N)C(=O)O; Pra = C#CC[C@H](N)C(=O)O; AEEA = NCCOCCOCC(=O)O
QUANTITY: tissue uptake at 6 h (%ID/g)
One number for each entry, in %ID/g.

Lookup: Give its tissue uptake at 6 h value. Item: CCCC[C@H](NC(C)=O)C(=O)N[C@H]1Cc2cn(nn2)CCCC[C@@H](C(=O)N[C@@H](CCCCNC(=O)COCCOCCNC(=O)CN2CCN(CC(=O)O)CCN(CC(N)=O)CCN(CC(=O)O)CC2)C(N)=O)NC(=O)[C@H](Cc2c[nH]c3ccccc23)NC(=O)[C@H](CCCNC(=N)N)NC(=O)[C@@H](Cc2ccccc2)NC(=O)[C@H](Cc2c[nH]cn2)NC1=O [[^203Pb]VMT01, metal not drawn] (Ac-[Nle][Pra]H[dF]RW[Lys(N3)]K([AEEA-X1])-NH2; triazole 2-7)
Found: 0.03
